Can you tell me IC50 for the items I'm about to list?
Study target: PIK3CA (human) (UniProt P42336)
Sequence (P42336 whole entry, looked up): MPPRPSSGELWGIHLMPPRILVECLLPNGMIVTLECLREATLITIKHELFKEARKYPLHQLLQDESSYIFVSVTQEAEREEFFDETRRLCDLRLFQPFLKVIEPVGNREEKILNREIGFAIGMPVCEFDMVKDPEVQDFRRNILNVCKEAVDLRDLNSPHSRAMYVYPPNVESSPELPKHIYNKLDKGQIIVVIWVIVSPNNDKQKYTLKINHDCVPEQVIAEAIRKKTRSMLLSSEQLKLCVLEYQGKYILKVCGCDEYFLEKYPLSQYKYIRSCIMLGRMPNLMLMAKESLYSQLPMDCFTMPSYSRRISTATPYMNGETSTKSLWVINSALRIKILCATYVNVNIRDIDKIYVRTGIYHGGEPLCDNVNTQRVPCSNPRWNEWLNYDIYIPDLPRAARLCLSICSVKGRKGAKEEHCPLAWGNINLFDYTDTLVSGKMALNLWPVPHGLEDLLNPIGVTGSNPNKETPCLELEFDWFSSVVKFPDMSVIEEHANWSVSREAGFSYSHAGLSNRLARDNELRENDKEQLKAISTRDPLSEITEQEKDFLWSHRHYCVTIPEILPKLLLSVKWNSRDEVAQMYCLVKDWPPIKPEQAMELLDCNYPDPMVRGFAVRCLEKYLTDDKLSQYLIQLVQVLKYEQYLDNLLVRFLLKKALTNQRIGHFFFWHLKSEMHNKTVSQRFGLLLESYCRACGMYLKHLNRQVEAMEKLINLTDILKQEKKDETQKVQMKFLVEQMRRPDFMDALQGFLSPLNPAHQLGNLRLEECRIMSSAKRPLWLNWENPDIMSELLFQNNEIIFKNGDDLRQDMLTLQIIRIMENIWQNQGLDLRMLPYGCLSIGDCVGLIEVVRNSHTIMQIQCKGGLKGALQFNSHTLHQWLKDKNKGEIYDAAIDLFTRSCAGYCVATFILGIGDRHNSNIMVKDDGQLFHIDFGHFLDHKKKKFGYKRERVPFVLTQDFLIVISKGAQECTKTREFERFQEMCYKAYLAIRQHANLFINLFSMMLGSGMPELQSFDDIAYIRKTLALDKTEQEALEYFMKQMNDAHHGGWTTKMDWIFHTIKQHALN
Test method notes: Enzyme Assay

CN(C)C(=O)c1ccc(Nc2nc(-c3ccc(N)nc3)nc(N3CCOCC3)n2)cc1 < 1 µM
CCN1CC(C)(C)Oc2nc(N3CC4CCC(C3)O4)nc(-c3ccc(NC(=O)Nc4ccnc(N5CCC(F)(F)CC5)c4)c(F)c3)c2C1=O > 10 µM
CS(=O)(=O)N1CCN(c2cnc3c(N4CCOCC4)nc(-c4cccc(O)c4)cn23)CC1 0.1 to 1 µM

Query: Data request, read-out IC50, for CCN1CC(C)(C)Oc2nc(N3CC4CCC(C3)O4)nc(-c3ccc(NC(=O)N[C@@H](C)CO)c(F)c3)c2C1=O
Result: > 10 µM

Where these numbers come from: the Kinase Knowledgebase extract (Sharma et al. 2016)
